# experimentalContext: 318.15 K; 101.3 kPa; Liquid; Vibrating tube method
Numbers after ± are expanded uncertainties.
parameter: mass density
Write the quantity with the unit trailing the number.

CCCC(=O)OC [methyl butanoate]	870.06 ± 0.24 kg/m3
CCCC(=O)OCC [ethyl butanoate]	852.26 ± 0.24 kg/m3
CCCCCCC [heptane]	662.33 ± 0.25 kg/m3

Prompt: Answer with the recorded mass density of CCCCCCCCC [nonane] only.
Response: 698.06 ± 0.25 kg/m3

====

// values below are reported refractive index
# methodDescription: refractive index (Na D-line) (dimensionless)
# experimentalContext: 298.15 K; 101.33 kPa; Liquid; Standard Abbe refractometry
Enter a number only.

Worked examples follow.
CCCC(=O)OC [methyl butanoate]	1.3851
CCCCCCC	1.3853
CCCC(=O)OCC [ethyl butanoate]	1.3898

Prompt: Supply refractive index value. Item: `CCCCCCCCC`
Response: 1.4032

====

mass density values, listed per item
# experimentalContext: 308.15 K; 101.3 kPa; Liquid; Vibrating tube method
Express your answer in kg/m3, writing the number without its unit.

The following compounds have reported results that may help.
CCCC(=O)OC [methyl butanoate]	881.19
CCCCCCC	670.96
CCCCCCCCC	705.96

We next turn to a different compound, shown below.
Prompt: Query mass density for CCCC(=O)OCC [ethyl butanoate]
Response: 862.85

====

# experimentalContext: 288.15 K; 101.3 kPa; Liquid; Vibrating tube method
Listing of entries alongside the reported mass density.
Kindly answer with a numeric value in kg/m3, unit omitted.

Answered cases to consult:
CCCC(=O)OC [methyl butanoate]	903.31
CCCC(=O)OCC [ethyl butanoate]	884.01
CCCCCCCCC	721.65

Prompt: Return reported mass density. Input molecule: `CCCCCCC`
Response: 688.16
